- recordedConditions: buffer; pH 7.4; 200.0 µM
quantityName: solubility kinetic (µg/mL)
Answer with a number only, understood to be in µg/mL.

# example entries with known answers
1. CC(C)[C@H](NC(=O)c1ccc(Cl)cc1)C(=O)OCC(=O)N1CCN(c2ccccc2)CC1 ... 52.5
2. CC(=O)c1csc(-c2ccccc2)n1 ... 16.6
3. N#Cc1c(-c2ccccc2)nc(SCc2ccc([N+](=O)[O-])cc2)[nH]c1=O ... 52

For the molecule `N#Cc1ccccc1OCC(=O)OCC(=O)c1c[nH]c2ccccc12` , what solubility kinetic is on record?
6.4

Also, `CCCc1cc(=O)oc2cc(OCC(=O)N3CCOCC3)c(Cl)cc12` please.
3.8

* * *

- recordedConditions: buffer; pH 7.4; 200.0 µM
Documented solubility kinetic across a set of compounds

1. CC(C)(C)NC(=O)N1CCCN(c2ccc(C(F)(F)F)cn2)CC1 ... > 51.7 µg/mL

Alright, here's another compound for you.
Endpoint output: solubility kinetic of `CCOC(=O)C1=C(Nc2ccc(Cl)cc2)OCC1=O` . Value?
> 42.3 µg/mL

* * *

- recordedConditions: buffer; pH 7.4; 200.0 µM
Consider the following molecules and their measured solubility kinetic readings.
// note: answer is a bare numeric in µg/mL

Check out these entries, answers already filled in.
1) Cl.NC(Cc1nc2ccccc2[nH]1)c1ccc(Cl)cc1 (configuration not stated) ... 37.7
2) N#C/C(=C\Nc1ccc(F)c(Cl)c1)C(=O)C1CC1 ... 1.7
3) CC(=O)c1ccc(NC(=O)Nc2ccc3c(c2)nc(C)n3C)cc1 ... 4.1
4) Cc1ccc(NC(=O)C2CCCN(c3nccc(C)n3)C2)c(C)c1 (configuration not stated) ... 2.2
5) O=C1CCCC2=C1C(c1ccc(O)c(O)c1)Nc1ccc3ccccc3c12 (configuration not stated) ... 47.3

Now for the molecule whose solubility kinetic we want.
solubility kinetic lookup needed for `O=C(Cc1ccccc1F)Nc1ccccc1-c1ccccc1` , thanks.
7.1

* * *

- recordedConditions: buffer; pH 7.4; 200.0 µM
Threshold check on solubility kinetic: at or above 5 µg/mL gives 1.0, strictly below gives 0.0.

Field: example entries. Status: answers known.
1) COC(=O)C(NC(C)=O)(Nc1cccc(C)n1)C(F)(F)F (stereo unspecified) ... 1.0
2) O=S(=O)(NC1CN2CCC1CC2)c1ccc(Cl)cc1 (stereo unspecified) ... 1.0
3) Cc1cc(C)nc(SSc2nc(C)cc(C)n2)n1 ... 1.0

Assess whether reported solubility kinetic for `Cc1cccn2c(=O)c(C(=O)NC3CCCCC3)c(O)nc12` sits at 5 µg/mL or higher.
1.0

Param item: `Cc1cccc(C(=O)O/N=C(\N)CS(=O)(=O)c2ccccc2)c1`
0.0

Lookup CC(C)CC(OC(=O)c1nsc(Cl)c1Cl)C(=O)NC1CCCC1 (stereo unspecified)
1.0

Next molecule: `C=CCn1c(Oc2cccc(C)c2)nc2c1c(=O)n(C)c(=O)n2C`
1.0

Now try `O=C1/C(=C/c2cccc([N+](=O)[O-])c2)CSc2ccc(Cl)cc21` .
0.0

* * *

- recordedConditions: buffer; pH 7.4; 200.0 µM
Quick reference for solubility kinetic among some molecules
Write it as a number; the unit µg/mL goes unstated.

// below: answered molecules
1) CCOc1ccc2[nH]cc(C(=O)NCc3ccc(F)cc3)c(=O)c2c1 ... 1.9
2) CCN(CC)c1ccc(C=Nc2ccc(C)cc2C)c(O)c1 ... 6.4
3) CC1(c2cccc(Br)c2)NC(=O)N(CC(=O)c2ccc3c(c2)OCCO3)C1=O (stereo unspecified) ... 12.5

Which solubility kinetic value is on record for `NC(=O)c1cc(S(=O)(=O)NCc2ccc(F)cc2)cs1` ?
47
